system-tested: T1, cynomolgus monkey IL-6 (cynomolgus monkey, UniProt P79341 28-212, limits assumed)
T1 construct: Immobilised on the Biacore chip
test-name: SPR (Biacore), periplasmic Fab
Entries and their fold improvement of kd over 28A6 (parental) values follow.
Your answer should be a plain number; it is taken to be in fold.

Study these solved cases before continuing.
{"binder": "55C11 (Fab, V domains shown, Periplasmic Fab; Suffix 'f' not explained; also called 55C11f) VH: QVQLVESGGGLVQPGGSLRLSCAASGFTFSNYYMTWVRQAPGKGLEWVSSIYSFSGDTAYADSVKGRFTISRDNAKNTLYLQMNSLKSEDTAVYYCTRNLGGVVVTTNGYDYWGQGTQVTVSS VL: DIQLTQSPSSLSASLGDSVTITCQASQSISDELSWYQQKPGQTPKLLIYGASKLQTGVPSRFSGSGSGTSFTLTISGLEAEDLATYYCLQGYRWPFMFGQGTKVELK", "observed": 7.56}
{"binder": "55E10 (Fab, V domains shown, Periplasmic Fab; Suffix 'g1' not explained; also called 55E10g1) VH: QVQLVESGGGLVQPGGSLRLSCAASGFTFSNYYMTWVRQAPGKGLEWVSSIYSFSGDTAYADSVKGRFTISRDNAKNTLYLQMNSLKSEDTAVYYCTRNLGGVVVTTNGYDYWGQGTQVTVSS VL: DIQMTQSPSSLPTSLGDSVTITCQASQSISDELSWYQQKPGQTPKLLIYGASKLQTGVPSRFSGSGSGTSFTLTISGLEAEDLATYYCLQGYSWPFMFGQGTKVELK", "observed": 9.78}
{"binder": "48H1 (Fab, V domains shown, Periplasmic Fab; Suffix 'g2, R4' not explained; also called 48H1g2, R4) VH: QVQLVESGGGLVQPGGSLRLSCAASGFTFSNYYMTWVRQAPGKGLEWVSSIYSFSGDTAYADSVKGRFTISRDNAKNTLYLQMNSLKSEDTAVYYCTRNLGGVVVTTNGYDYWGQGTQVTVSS VL: DVVMTQSPSSLPTSLGDSVTITCQASQSISDELSWYQQKPGQTPKLLIYGASKLQTGVPSRFSGSGSGTSFTLTISGLEAEDLATYYCLQGYSWPFMFGQGTKVELK", "observed": 7.11}

We now examine a further binder.
Req: fold improvement of kd over 28A6 (parental) for 55A11 (Fab, V domains shown, Periplasmic Fab; Suffix 'd' of the label not explained; also called 55A11d) VH: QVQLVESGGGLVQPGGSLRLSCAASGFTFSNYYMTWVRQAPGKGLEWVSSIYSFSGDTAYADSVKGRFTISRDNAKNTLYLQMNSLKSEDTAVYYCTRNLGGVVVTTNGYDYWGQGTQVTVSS VL: DIQMTQSPSSLPTSLGDSVTITCQASQSISDELSWYQQKPGQTPKLLIYGASRLQTGVPSRFSGRGSGTSFTLTISGLEAEDLATYYCLQGYSWPFMFGQGTKVELK ?
Resp: 8.24

Measured values drawn from patent US20220073604A1 for this set.
